Measured PBM binding z-score, listed per entry.
Test system: RARg:RXRa (NR concentration 270 nM, RXRa partner concentration 90 nM)
Test: PBM binding z-score (relative to random genomic background probes); higher = stronger binding; sequences stand for … in GC…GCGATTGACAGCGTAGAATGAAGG
observation.type: PBM binding z-score

>>> readout_number("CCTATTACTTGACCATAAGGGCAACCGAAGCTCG")
0.821
>>> readout_number("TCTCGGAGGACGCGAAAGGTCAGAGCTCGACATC")
4.31
>>> readout_number("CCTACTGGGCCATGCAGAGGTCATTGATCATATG")
4.29
>>> readout_number("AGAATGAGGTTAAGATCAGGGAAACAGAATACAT")
2.17
>>> readout_number("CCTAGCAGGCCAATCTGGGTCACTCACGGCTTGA")
1.18
>>> readout_number("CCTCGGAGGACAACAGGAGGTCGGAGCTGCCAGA")
1.08
>>> readout_number("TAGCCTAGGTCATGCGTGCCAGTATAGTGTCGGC")
3.78
>>> readout_number("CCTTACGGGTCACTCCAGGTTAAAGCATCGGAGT")
4.68
>>> readout_number("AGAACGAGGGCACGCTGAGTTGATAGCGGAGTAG")
1.85
>>> readout_number("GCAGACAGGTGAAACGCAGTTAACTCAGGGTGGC")
0.384
>>> readout_number("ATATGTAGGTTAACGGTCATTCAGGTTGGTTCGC")
2.13
>>> readout_number("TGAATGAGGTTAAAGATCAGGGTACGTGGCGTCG")
2.36
>>> readout_number("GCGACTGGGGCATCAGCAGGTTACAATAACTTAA")
0.817
>>> readout_number("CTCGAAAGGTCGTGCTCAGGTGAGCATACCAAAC")
5.53
>>> readout_number("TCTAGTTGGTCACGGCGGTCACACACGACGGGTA")
2.1
>>> readout_number("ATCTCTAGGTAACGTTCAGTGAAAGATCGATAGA")
0.535
>>> readout_number("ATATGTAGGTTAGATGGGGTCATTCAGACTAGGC")
4.06
>>> readout_number("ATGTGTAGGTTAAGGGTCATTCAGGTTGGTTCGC")
4.95
>>> readout_number("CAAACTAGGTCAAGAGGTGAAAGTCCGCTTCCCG")
5.62
>>> readout_number("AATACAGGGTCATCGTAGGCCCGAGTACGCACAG")
5.52
>>> readout_number("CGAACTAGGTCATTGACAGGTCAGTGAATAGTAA")
6.77
>>> readout_number("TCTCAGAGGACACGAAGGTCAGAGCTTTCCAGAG")
3.73
>>> readout_number("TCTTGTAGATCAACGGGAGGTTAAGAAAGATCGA")
1.49
>>> readout_number("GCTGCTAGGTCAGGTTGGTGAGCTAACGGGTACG")
2.37
>>> readout_number("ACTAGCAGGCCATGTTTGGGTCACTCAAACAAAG")
2.04
>>> readout_number("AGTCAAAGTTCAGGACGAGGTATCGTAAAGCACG")
4.03
>>> readout_number("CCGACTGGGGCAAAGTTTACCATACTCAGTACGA")
1.01
>>> readout_number("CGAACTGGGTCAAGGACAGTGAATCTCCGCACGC")
3.53
>>> readout_number("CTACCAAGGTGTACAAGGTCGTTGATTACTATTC")
0.657
>>> readout_number("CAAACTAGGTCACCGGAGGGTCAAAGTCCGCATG")
7.83
>>> readout_number("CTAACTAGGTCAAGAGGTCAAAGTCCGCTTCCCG")
8.23
>>> readout_number("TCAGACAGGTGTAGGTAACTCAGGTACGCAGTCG")
0.0352
>>> readout_number("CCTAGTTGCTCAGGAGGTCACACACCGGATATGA")
4.26
>>> readout_number("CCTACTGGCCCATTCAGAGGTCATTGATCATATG")
2.97
>>> readout_number("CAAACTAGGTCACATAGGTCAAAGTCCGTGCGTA")
5.93
>>> readout_number("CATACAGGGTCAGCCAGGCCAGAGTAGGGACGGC")
4.58
>>> readout_number("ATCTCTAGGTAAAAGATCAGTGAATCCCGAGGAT")
0.381
>>> readout_number("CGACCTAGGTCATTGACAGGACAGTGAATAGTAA")
5.2
>>> readout_number("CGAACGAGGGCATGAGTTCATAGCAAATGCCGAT")
3.42
>>> readout_number("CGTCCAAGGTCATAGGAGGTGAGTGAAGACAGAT")
5.74
>>> readout_number("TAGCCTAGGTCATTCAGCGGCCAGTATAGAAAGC")
5.65
>>> readout_number("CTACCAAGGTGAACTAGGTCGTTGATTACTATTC")
1.45
>>> readout_number("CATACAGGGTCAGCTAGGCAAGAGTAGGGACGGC")
4.17
>>> readout_number("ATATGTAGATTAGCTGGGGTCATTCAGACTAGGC")
3.43
>>> readout_number("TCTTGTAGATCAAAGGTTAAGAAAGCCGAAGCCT")
1.68
